# System: MS2 coat protein
# assay.explanation: apparent KD of MS2 coat protein; designed switch direction (-1 OFF switch, 1 ON switch): -1; higher = weaker reporter binding
# condition.set: input ligand: microRNA oligo, concentration not stated
measurement.type: apparent KD of MS2 coat protein (nM)

[[record]]
macromolecule_sequence = "GCACGGAGUGUAGGAUAUCUGUGCGAUUAGCUCAGAGAAGGGCACAUGAGGAUCACCCAUGUGUAUAAACACAAUAAUCCGUGC [Eli exng1 - 069] (Eterna round: R96, puzzle: Exclusion NG 1)"
observed = 7.91

[[record]]
macromolecule_sequence = "AGUACUAUCACGAAAGUGAUAGUACAAUAAGCUUGUGAAACAUGAGGAUCACCCAUGUCCUCAUAAGCUCGUCUUAU [JL turnoff v2 77] (Eterna round: R96, puzzle: Sensor v2, turn-off variant 2)"
observed = 463

[[record]]
macromolecule_sequence = "GAUAGAGAGCAGGAUAUCAUAGAAAUGUAUGAAUGAGAAGGGCUCACAUGAGGAUCACCCAUGUGGUCCUAGAU [JL Dibiri mod 19] (Eterna round: R96, puzzle: Exclusion 6)"
observed = 23.4

[[record]]
macromolecule_sequence = "AGAUGCUCGAGUCAACAUGAGGAUCACCCAUGUACAGUUAAUGAGGAUAUCUGAGACAAAUAGUAGGAGAAGGCGUGAACAUGA [Ex NG3 #12] (Eterna round: R96, puzzle: Exclusion NG 3)"
observed = 69

[[record]]
macromolecule_sequence = "GUUGUUUAUGUAGGAUAUGCCUGGCGUGCCUUUGCAGAAGGACAUGAGGAUCACCCAUGUAACAUGAGGCUCACCCAUGUCGCU [salish99_ExNG1_r04_108] (Eterna round: R96, puzzle: Exclusion NG 1)"
observed = 159

[[record]]
macromolecule_sequence = "AGUACUAUCACGAAAGUGAUAGUACAAAAAGCAAGUGAAACAUGAGGAUCACCCAUGUCCUCAUUUGCUCGUCUUAU [JL turnoff v2 99] (Eterna round: R96, puzzle: Sensor v2, turn-off variant 2)"
observed = 375

[[record]]
macromolecule_sequence = "CCUAUGUGAGGAUAUCACUGGUCUUUUCAUUAGAUGAUCAGUGAGAAGGCACAUGAGGAUCACCCAUGUCAGUG [Ex4 - 3 - 53] (Eterna round: R96, puzzle: Exclusion 4)"
observed = 59.7

[[record]]
macromolecule_sequence = "UCAAUUAUGACAGGAUAUAGUUUUUGUUUUUCUCUAGAAGGGUCUAUGCACAUGAGGAUCACCCAUGUUCUUUUUAUUUGCAUU [JR_ExcNG1_Sub016] (Eterna round: R96, puzzle: Exclusion NG 1)"
observed = 46.1

[[record]]
macromolecule_sequence = "CCAUCGAGUGUGAGGAUAUGCUGGUCCAUAGAUCAGCAGAAGGCACAUGAGGAUCACCCAUGUGGAGACGGUGG [Mat - Exclusion 4 - JL Mod - D78] (Eterna round: R96, puzzle: Brourd's mod of Exclusion 4)"
observed = 31


###

Reported values of apparent KD of MS2 coat protein for individual entries
# Test system: MS2 coat protein
# assay.explanation: apparent KD of MS2 coat protein; designed switch direction (-1 OFF switch, 1 ON switch): 1; higher = weaker reporter binding
# condition.set: input ligand: FMN 200 uM
measurement.type: apparent KD of MS2 coat protein

[[record]]
macromolecule_sequence = "AGCCGAGACUGAGGAUAUUUGAAUCUACAUGAGGAUCACCCAUGUAGCAACACGUGGUAGUGAUCGAAGAAGGCAGCUCGGCGC [MOD of Omei's SS(NG)2 Cv2] (Eterna round: R96, puzzle: Same State NG 2)"
observed = "22.6 nM"

[[record]]
macromolecule_sequence = "GCUAGUAUAAUUGUCAACAUGAGGAUCACCCAUGUAUGUUGGCAGGAUAUCGUUUGCAAAGCAAACGAGAAGGGCUAAACUAGC [Mat - Same State NG 3 - JL Mod - D11] (Eterna round: R96, puzzle: Same State NG 3)"
observed = "61.3 nM"

[[record]]
macromolecule_sequence = "UUGCGGAAUUAAGGAUAUUGAGUACAUAUGUUUAACAUGAGGAUCACCCAUGUGGGUUGCGGUAUCGAGAAGGUAAAUUACUAC [salish99_SSNG2_r04_802] (Eterna round: R96, puzzle: Same State NG 2)"
observed = "130 nM"

[[record]]
macromolecule_sequence = "GAAGACAUAGUUCAGGAUAUAGGAAUAGUCACAUGAGGAUCACCCAUGUGCAUUUAUAUGCGCACUUAGAAGGGAGGUAGUUAUC [SameState2 Malc#23] (Eterna round: R96, puzzle: Same State 2)"
observed = "39.4 nM"


###

Reported values of apparent KD of MS2 coat protein for individual entries
# System: MS2 coat protein
# assay.explanation: apparent KD of MS2 coat protein; designed switch direction (-1 OFF switch, 1 ON switch): -1; higher = weaker reporter binding
# condition.set: Eterna round: R95; input ligand: none
measurement.type: apparent KD of MS2 coat protein (µM)

[[record]]
macromolecule_sequence = "AUGGUCCGAGGAUAUAUUAUGUGAUACAUGAGGAUCACCCAUGUUAUAUGAUGGAUGUUAGUAGAAGGCGGACUAC [salish99_ex5_r3_002] (puzzle: Exclusion 5)"
subject_of_test = "MS2 coat protein"
observed = 0.103

[[record]]
macromolecule_sequence = "GUUUGACAUGAGGAUCACCCAUGUGAGGAUAUCGUCUGGUACGUGUUGGCUGGCAUCUCGAGAAGGCGCAUAGG [Exclusion 1 V57] (puzzle: Exclusion 1)"
subject_of_test = "MS2 coat protein"
observed = 0.0649

[[record]]
macromolecule_sequence = "CAUACUCAAGUGAGGAUAUAGUCUCGGAUACGAAACUAGAAGGCACAUGAGGAUCACCCAUGUAGAGAGUAAAG [EX-4 Malc #29] (puzzle: Brourd's mod of Exclusion 4)"
subject_of_test = "MS2 coat protein"
observed = 0.0131

[[record]]
macromolecule_sequence = "AGGUGGAAGCAGGAUAUGCUUGUAUAAUUGAUAGCAGAAGGGCUAACAUGAGGAUCACCCAUGUAAGAGGUGUA [JR_E6_Sub058] (puzzle: Exclusion 6)"
subject_of_test = "MS2 coat protein"
observed = 0.206

[[record]]
macromolecule_sequence = "UCAAGUAUGUAGGAUAUGAUGUGAUUCUACAUAUCAGAAGGACGUACAUGAGGAUCACCCAUGUAACUUGCAUG [Exclusion 6 - B - 12:d] (puzzle: Exclusion 6)"
subject_of_test = "MS2 coat protein"
observed = 0.032

[[record]]
macromolecule_sequence = "UCCUUACAUGAGGAUCACCCAUGUCAGGAUAUCUCGGGCGGCUGAGGACCAGCCGCCCAGAGAAGGGACGAGGA [Dixeinis] (puzzle: Exclusion 1)"
subject_of_test = "MS2 coat protein"
observed = 0.0313

[[record]]
macromolecule_sequence = "CUUCAAGCACCAGAGCUCACACUUAUACCUGCUCUGGUGACAUGAGGAUCACCCAUGUUUUUUGCCCGUCUUAUCUU [Sensor v3, turn-off variant 2 (MOD of Leso v.2)] (puzzle: Sensor v3, turn-off variant 2)"
subject_of_test = "MS2 coat protein"
observed = 0.115

[[record]]
macromolecule_sequence = "ACAAGCUUUUUGCUCGGCUACAUGAGGAUCACCCAUGUUGUGUGUUAUUGUUUUUGAUUGUUCGUGCGCAGCAGGUA [JR_SV3TOV1_Sub073] (puzzle: Sensor v3, turn-off variant 1)"
subject_of_test = "MS2 coat protein"
observed = 0.112

[[record]]
macromolecule_sequence = "UUUUUCAGGCCAGAUCCUCACAUGAGGAUCACCCAUGUGCUCGUCUGUUUUCGCGCUAGCUUUUUUUUGGUAGGGCU [Level Boss var2-17] (puzzle: Sensor v3, turn-off variant 1)"
subject_of_test = "MS2 coat protein"
observed = 0.325

[[record]]
macromolecule_sequence = "CUGAGGUAGCGGUCCUAUGACAUGAGGAUCACCCAUGUACCUUGCUUCGAGCUUUUAGCUCGUCUUAUGAUUCUCGG [Mat - Sensor v3 - turn-off var 1 - JL Mod - D36] (puzzle: Sensor v3, turn-off variant 1)"
subject_of_test = "MS2 coat protein"
observed = 0.522


###

# Tested on: MS2 coat protein
# assay.explanation: apparent KD of MS2 coat protein; designed switch direction (-1 OFF switch, 1 ON switch): -1; higher = weaker reporter binding
# condition.set: input ligand: microRNA oligo, concentration not stated
apparent KD of MS2 coat protein below 40 nM gives label 0; apparent KD of MS2 coat protein at or above it gives label 1.

[[record]]
macromolecule_sequence = "UGAGUGCUGCGAGGAUAUACAUGAGGAUCACCCAUGUGGUGGUGUGAGGCUUUGCCUCACACCAUGUAGAAGGCGCAGUACUCU [JL ENG2 1.08] (Eterna round: R96, puzzle: Exclusion NG 2)"
category_label = "label 0"

[[record]]
macromolecule_sequence = "UGAGCUCUAGUAGGAUAUGUCGGAUAUGUUGUUGAGGUUCACCCAACGACGUCAAUGACAGAAGGACAGAAGGACUCCUGCUCU [pwkr exNG2 2xFMN 1xF5.7] (Eterna round: R96, puzzle: Exclusion NG 2)"
category_label = "label 1"

[[record]]
macromolecule_sequence = "GUCAGGAAUGUAGGAUAUCUGCACGAUUAGUGCAGAGAAGGACAUGAGGAUCACCCAUGUAUAGUAGCUUCGGCUACACCUGAC [ENG1-A1] (Eterna round: R96, puzzle: Exclusion NG 1)"
category_label = "label 0"

[[record]]
macromolecule_sequence = "GCGCACCUACCAAAAGGUAGGUCAACAUGAGGAUCACCCAUGUAGGAUAUCGAUUGCUUUGCAGUCGAGAAGGGCAUGAUGCGC [JL ENG3 3.80 Mod 14] (Eterna round: R96, puzzle: Exclusion NG 3)"
category_label = "label 0"

[[record]]
macromolecule_sequence = "AUAGUCUGGCAAGGAUAUAGGAAAGGAAGUGUACUAGAAGGUGCGCAGACAUGAGGAUCACCCAUGUGAGCCGACGAAAUAAUA [PowerStrip EXNG 1.17] (Eterna round: R96, puzzle: Exclusion NG 1)"
category_label = "label 1"

